// provenance: DBAASP

The molecules below have reported MIC for Candida albicans.
Please state the figure in µM; there is no need to write the unit.

Q. Form field: MIC recorded for CC[C@H](C)[C@H](NC(=O)[C@H](CCCCN)NC(=O)[C@H](CCCCN)NC(=O)[C@@H](NC(=O)[C@H](C)NC(=O)[C@H](CO)NC(=O)[C@@H](NC(=O)[C@H](C)NC(=O)[C@H](CO)NC(=O)[C@@H]1CCCN1C(=O)[C@@H](NC(=O)[C@H](CC(C)C)NC(=O)[C@H](CO)NC(=O)[C@H](CC(C)C)NC(=O)[C@H](CC(C)C)NC(=O)[C@H](Cc1ccccc1)NC(=O)[C@@H](N)Cc1ccccc1)[C@@H](C)CC)[C@@H](C)CC)[C@@H](C)CC)C(N)=O with Candida albicans (enter value)
A. 6.25

Q. Can you handle CC(C)C[C@H](NC(=O)[C@H](CCCCN)NC(=O)[C@H](CCCN=C(N)N)NC(=O)[C@H](Cc1ccccc1)NC(=O)[C@H](Cc1ccccc1)NC(=O)[C@H](CCCCN)NC(=O)[C@H](CCCN=C(N)N)NC(=O)[C@H](CC(C)C)NC(=O)[C@H](CC(C)C)NC(=O)[C@@H](N)CCCN=C(N)N)C(=O)N[C@@H](CCCCN)C(=O)N[C@@H](CCCCN)C(=O)N[C@@H](CO)C(=O)N[C@H](C(=O)O)C(C)C next?
A. 35.2

Q. Field entry: CC[C@H](C)[C@H](NC(=O)CN)C(=O)N[C@@H](CC(C)C)C(=O)N[C@@H](CC(=O)O)C(=O)N[C@@H](C)C(=O)N[C@H](C(=O)N[C@@H](CCCCN)C(=O)N[C@@H](C)C(=O)N[C@H](C(=O)N[C@@H](C)C(=O)N[C@@H](CCCCN)C(=O)N[C@@H](C)C(=O)N[C@@H](C)C(=O)NCC(N)=O)[C@@H](C)CC)[C@@H](C)CC
A. 195

Q. Repeat for the following molecule: CC(C)C[C@H](N)C(=O)N[C@H]1CSSC[C@@H](C(=O)N[C@H](C(N)=O)C(C)C)NC(=O)[C@H](C(C)C)NC(=O)[C@@H]2CSSC[C@H](NC(=O)[C@H](Cc3ccc(O)cc3)NC1=O)C(=O)N[C@@H](CCCN=C(N)N)C(=O)N[C@@H](CCCN=C(N)N)C(=O)N[C@@H](CCCN=C(N)N)C(=O)N[C@@H](Cc1ccccc1)C(=O)N2
A. 7.58

Q. Request: CC[C@H](C)[C@H](NC(=O)[C@H](Cc1c[nH]c2ccccc12)NC(=O)[C@H](CC(C)C)NC(=O)[C@H](CCCN=C(N)N)NC(=O)[C@@H](N)C(C)C)C(=O)N[C@@H](CCCN=C(N)N)C(=O)N[C@H](C(=O)N[C@@H](C)C(=O)N[C@H](C(=O)N[C@H](C(=O)N[C@@H](CCCN=C(N)N)C(=O)N[C@@H](C)C(N)=O)[C@@H](C)CC)C(C)C)C(C)C
A. 34.4
